Biological target: human muscarinic M1 receptor (Homo sapiens)
Sequence (P11229 1-460): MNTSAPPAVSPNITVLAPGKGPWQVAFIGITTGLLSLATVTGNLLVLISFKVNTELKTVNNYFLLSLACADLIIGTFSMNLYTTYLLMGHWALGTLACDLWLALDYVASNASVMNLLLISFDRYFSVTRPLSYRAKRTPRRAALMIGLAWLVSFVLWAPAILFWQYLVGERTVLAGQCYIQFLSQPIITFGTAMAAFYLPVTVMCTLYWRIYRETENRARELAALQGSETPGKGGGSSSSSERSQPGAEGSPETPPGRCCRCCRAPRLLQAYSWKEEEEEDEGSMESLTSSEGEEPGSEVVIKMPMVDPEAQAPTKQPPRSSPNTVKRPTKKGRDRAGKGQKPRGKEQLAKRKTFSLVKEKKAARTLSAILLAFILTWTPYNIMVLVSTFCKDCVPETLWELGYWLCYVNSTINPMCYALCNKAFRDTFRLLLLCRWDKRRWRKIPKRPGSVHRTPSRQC
Assay: Alphascreen Surefire phospho-ERK1/2 functional assay, M1
Type: cell-based
Conditions: CHO, read-out: % Emax cf. ACh, M1, CHO cells stably expressing human M1; Emax compared with ACh
Parameter: Emax (%)

P. CCCC(=NOC)C1CCN(C2CC3(CCN(C(=O)OCC)C3)C2)CC1 (mixture of isomers) [2-3 Mixture of two isomers]
Q. CCOC(=O)N1CCC[C@H](N2CCC(C(C)=NOC)CC2)CC1 (single isomer, unassigned) [(S)-1-1 Isomer 1]
R. CCCC(=NOC)C1CCN(C2CCCN(C(=O)OCC)CC2)CC1 (single isomer, unassigned) [1-3 Isomer 1 (racemic)]
Problem: Which order do these items fall in when sorted by Emax from largest to smallest? Output the labels ranked as instructed.
Result: R, Q, P
(R: 106%, Q: 47%, P: 22%)

----------
biological target: human muscarinic M2 receptor (Homo sapiens, UniProt P08172); experiment: Alphascreen Surefire phospho-ERK1/2 functional assay, M2; type: cell-based; conditions: CHO, read-out: % Emax cf. ACh, M2, CHO cells stably expressing human M2; Emax compared with ACh
Sequence (P08172 whole entry): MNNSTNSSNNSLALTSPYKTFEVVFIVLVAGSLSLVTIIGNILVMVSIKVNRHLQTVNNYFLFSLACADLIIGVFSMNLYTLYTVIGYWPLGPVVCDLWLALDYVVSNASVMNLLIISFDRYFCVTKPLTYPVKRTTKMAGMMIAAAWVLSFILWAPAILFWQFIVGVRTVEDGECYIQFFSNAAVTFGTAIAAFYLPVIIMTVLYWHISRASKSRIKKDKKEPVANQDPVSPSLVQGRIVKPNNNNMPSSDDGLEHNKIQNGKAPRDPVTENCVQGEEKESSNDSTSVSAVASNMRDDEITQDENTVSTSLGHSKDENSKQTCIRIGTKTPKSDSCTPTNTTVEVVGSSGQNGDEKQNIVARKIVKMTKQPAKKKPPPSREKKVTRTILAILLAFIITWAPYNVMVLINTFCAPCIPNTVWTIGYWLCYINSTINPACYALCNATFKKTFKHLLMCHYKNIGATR
Parameter: Emax (%)

Solved entries (count: 2):
• CCCC(=NOC)C1CCN([C@H]2CCCN(C(=O)OCC)CC2)CC1 (single isomer, unassigned) [(S)-1-3 Isomer 2] = 7
• CCOC(=O)N1CCC[C@H](N2CCC(C(C)=NOC)CC2)CC1 (single isomer, unassigned) [(S)-1-1 Isomer 2] = 7

P. CCOC(=O)N1CCCC(N2CCC(C(CCC(C)C)=NOC)CC2)CC1 (single isomer, unassigned) [1-6 Isomer 2 (racemic)]
Q. CCOC(=O)N1CCCC(N2CCC(C(C)=NOC)CC2)CC1 (single isomer, unassigned) [1-1 Isomer 2 (racemic)]
R. CCCC(=NOC)C1CCN(C2CCCN(C(=O)OCC)CC2)CC1 (single isomer, unassigned) [1-3 Isomer 2 (racemic)]
S. CCCC(=NOC)C1CCN(C2CC3(CCN(C(=O)OCC)C3)C2)CC1 (mixture of isomers) [2-3 Mixture of two isomers]
Problem: Could you please order the items by Emax, going from the lowest number to the highest? // rank by listing labels in the order requested
Result: Q, S, P, R

----------
biological target: human muscarinic M2 receptor (Homo sapiens, UniProt P08172); assay: Alphascreen Surefire phospho-ERK1/2 functional assay, M2; format: cell-based; conditions: CHO, read-out: % Emax cf. ACh, M2, CHO cells stably expressing human M2; Emax compared with ACh
Parameter: Emax (%)

- CCCC(=NOC)C1CCN(C2CC3(CCN(C(=O)OCC)C3)C2)CC1 (single isomer, unassigned) [2-3 Isomer 4]: 15

A. CCOC(=O)N1CCC2(CC(N3CCC(C(C)=NOC)CC3)C2)C1 (single isomer, unassigned) [2-1 Mixture of isomers 2]
B. CCCON=C(CC)C1CCN(C2CCCN(C(=O)OCC)CC2)CC1 (single isomer, unassigned) [1-11 Isomer 2 (racemic)]
C. CCOC(=O)N1CCCC(N2CCC(C(C#N)=NOC(C)C)CC2)CC1 (mixture of isomers) [4-1 Mixture of isomers]
Problem: Given 3 molecules, produce a descending ranking by Emax. Answer by naming the labels in the order asked.
Result: A, B, C

----------
molecular target: human muscarinic M4 receptor (Homo sapiens); construct: expressed in transfected cells; experiment: Alphascreen Surefire phospho-ERK1/2 functional assay, M4; type: cell-based; settings: CHO cells stably expressing human M4; agonist 5 min, 37° C.; read-out: pEC50 M4 (converted)
Sequence (P08173 whole entry): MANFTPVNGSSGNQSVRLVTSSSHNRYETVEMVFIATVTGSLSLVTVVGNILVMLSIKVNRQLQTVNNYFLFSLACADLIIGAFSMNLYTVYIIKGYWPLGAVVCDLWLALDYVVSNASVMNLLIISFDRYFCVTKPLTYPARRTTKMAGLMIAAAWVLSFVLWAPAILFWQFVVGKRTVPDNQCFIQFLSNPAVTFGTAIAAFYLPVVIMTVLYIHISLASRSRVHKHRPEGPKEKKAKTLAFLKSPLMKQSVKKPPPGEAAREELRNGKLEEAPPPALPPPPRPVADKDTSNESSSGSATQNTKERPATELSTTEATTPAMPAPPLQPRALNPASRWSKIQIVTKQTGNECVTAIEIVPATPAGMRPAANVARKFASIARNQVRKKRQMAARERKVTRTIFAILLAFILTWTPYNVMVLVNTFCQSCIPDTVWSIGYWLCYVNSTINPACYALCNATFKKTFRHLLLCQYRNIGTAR
Parameter: EC50 (nM)

Some solved cases for reference:
• CCOC(=O)N1CCC2(CC(N3CCC(C(CC)=NOC)CC3)C2)C1 (single isomer, unassigned) [2-2 Isomer 3] = 50.1
• CCOC(=O)N1CCCC(N2CCC(C(C)=NOC(C)C)CC2)CC1 (single isomer, unassigned) [1-9 Isomer 2 (racemic)] = 398
• CCCC(=NOC)C1CCN(C2CCCN(C(=O)OCC)CC2)CC1 (single isomer, unassigned) [1-3 Isomer 1 (racemic)] = 25.1
• CCOC(=O)N1CCC[C@H](N2CCC(C(CC)=NOC)CC2)CC1 (single isomer, unassigned) [(S)-1-2 Isomer 2] = 50.1
• CCOC(=O)N1CCC[C@H](N2CCC(C(CC)=NOC)CC2)CC1 (single isomer, unassigned) [(S)-1-2 Isomer 1] = 63.1

a. CCOC(=O)N1CCC2(CC(N3CCC(C(C)=NOC)CC3)C2)C1 (single isomer, unassigned) [2-1 Mixture of isomers 2]
b. CCCC(=NOC)C1CCN(C2CC3(CCN(C(=O)OCC)C3)C2)CC1 (single isomer, unassigned) [2-3 Isomer 4]
c. CCCON=C(C)C1CCN(C2CCCN(C(=O)OCC)CC2)CC1 (single isomer, unassigned) [1-8 Isomer 2 (racemic)]
d. CCOC(=O)N1CCCC(N2CCC(C(C)=NOC)CC2)CC1 (single isomer, unassigned) [1-1 Isomer 2 (racemic)]
e. CCON=C(C)C1CCN(C2CCCN(C(=O)OCC)CC2)CC1 (single isomer, unassigned) [1-7 Isomer 1 (racemic)]
Problem: List these items ordered by EC50, big to small. Ranked list of labels, please, in the requested order.
Result: e, c, d, a, b
(e: 631 nM, c: 316 nM, d: 126 nM, a: 63.1 nM, b: 25.1 nM)

I. CCOC(=O)N1CCCC(N2CCC(C(CC)=NOC)CC2)CC1 (single isomer, unassigned) [1-2 Isomer 1 (racemic)]
II. CCCC(=NOC)C1CCN(C2CC3(CCN(C(=O)OCC)C3)C2)CC1 (mixture of isomers) [2-3 Mixture of two isomers]
Problem: Looking only at measured EC50, which entry is lower, I or II ? Please reply using the label of the selected record.
Result: II

1. CCCC(=NOC)C1CCN(C2CCCN(C(=O)OCC)CC2)CC1 (single isomer, unassigned) [1-3 Isomer 2 (racemic)]
2. CCOC(=O)N1CCCC(N2CCC(C(CC)=NOC)CC2)CC1 (single isomer, unassigned) [1-2 Isomer 2 (racemic)]
3. CCOC(=O)N1CCCC(N2CCC(C(CCC(C)C)=NOC)CC2)CC1 (single isomer, unassigned) [1-6 Isomer 2 (racemic)]
Problem: Sort the 3 molecules by EC50; largest first, smallest last. Answer by naming the labels in the order asked.
Result: 3, 1, 2

A. CCON=C(C)C1CCN(C2CCCN(C(=O)OCC)CC2)CC1 (single isomer, unassigned) [1-7 Isomer 2 (racemic)]
B. CCOC(=O)N1CCC2(CC(N3CCC(C(CC)=NOC)CC3)C2)C1 (single isomer, unassigned) [2-2 Isomer 4]
C. CCCON=C(CC)C1CCN(C2CCCN(C(=O)OCC)CC2)CC1 (single isomer, unassigned) [1-11 Isomer 1 (racemic)]
Problem: Please order the records by their reported EC50, lowest number first. Returns: the labels listed in the requested order.
Result: B, C, A

----------
Target: human muscarinic M1 receptor (Homo sapiens)
Sequence (P11229 1-460): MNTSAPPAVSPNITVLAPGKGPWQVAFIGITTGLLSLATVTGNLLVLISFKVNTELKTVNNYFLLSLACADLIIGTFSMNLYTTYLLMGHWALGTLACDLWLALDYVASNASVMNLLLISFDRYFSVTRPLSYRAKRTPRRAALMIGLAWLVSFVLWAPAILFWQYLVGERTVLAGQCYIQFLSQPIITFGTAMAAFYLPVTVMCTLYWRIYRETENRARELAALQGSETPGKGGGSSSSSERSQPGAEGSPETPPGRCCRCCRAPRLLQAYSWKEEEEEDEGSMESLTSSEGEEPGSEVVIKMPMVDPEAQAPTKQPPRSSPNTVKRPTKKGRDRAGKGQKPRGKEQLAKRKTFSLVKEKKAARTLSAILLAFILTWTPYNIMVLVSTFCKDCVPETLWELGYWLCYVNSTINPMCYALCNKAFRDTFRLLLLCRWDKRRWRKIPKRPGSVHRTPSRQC
Assay: Alphascreen Surefire phospho-ERK1/2 functional assay, M1
Assay type: cell-based
Conditions: CHO cells stably expressing human M1; agonist 5 min, 37° C.; read-out: pEC50 M1 (converted)
Parameter: EC50 (nM)

Sample records with EC50:
- CCON=C(C)C1CCN(C2CCCN(C(=O)OCC)CC2)CC1 (single isomer, unassigned) [1-7 Isomer 2 (racemic)]: 501
- CCOC(=O)N1CCCC(N2CCC(C(CCC(C)C)=NOC)CC2)CC1 (single isomer, unassigned) [1-6 Isomer 2 (racemic)]: 39.8
- CCOC(=O)N1CCC[C@H](N2CCC(C(C)=NOC)CC2)CC1 (single isomer, unassigned) [(S)-1-1 Isomer 1]: 631
- CCCON=C(CC)C1CCN(C2CCCN(C(=O)OCC)CC2)CC1 (single isomer, unassigned) [1-11 Isomer 2 (racemic)]: 158
- CCCON=C(CC)C1CCN(C2CCCN(C(=O)OCC)CC2)CC1 (single isomer, unassigned) [1-11 Isomer 1 (racemic)]: 251
- CCCC(=NOC)C1CCN(C2CCCN(C(=O)OCC)CC2)CC1 (single isomer, unassigned) [1-3 Isomer 1 (racemic)]: 316

I. CCOC(=O)N1CCCC(N2CCC(C(=NOC)C(C)C)CC2)CC1 (single isomer, unassigned) [1-4 Isomer 1 (racemic)]
II. CCOC(=O)N1CCCC(N2CCC(C(C)=NOC)CC2)CC1 (single isomer, unassigned) [1-1 Isomer 2 (racemic)]
III. CCOC(=O)N1CCCC(N2CCC(C(=NOC)NCC(C)C)CC2)CC1 (racemic) [3-1 Mixture of isomers]
IV. CCON=C(C)C1CCN(C2CCCN(C(=O)OCC)CC2)CC1 (single isomer, unassigned) [1-7 Isomer 1 (racemic)]
Problem: In this exercise, place the 4 compounds in ascending sequence of their recorded EC50. Form field (ranking): labels in requested order.
Result: III, I, IV, II

a. CCOC(=O)N1CCC[C@H](N2CCC(C(CC)=NOC)CC2)CC1 (single isomer, unassigned) [(S)-1-2 Isomer 2]
b. CCOC(=O)N1CCCC(N2CCC(C(CC)=NOC(C)C)CC2)CC1 (single isomer, unassigned) [1-12 Isomer 2 (racemic)]
Problem: // compare: a vs b , metric EC50, want the smaller Give the chosen item's label as your response.
Result: b
(b: 316 nM, a: 501 nM)

The reported measurements were obtained from patent US11208396B2.
